Entry source: ChEMBL document CHEMBL1201862

Tested on: OVCAR-4
Assay: NCI tumour cell line growth inhibition, 48 h
Active and inactive are the calls of the source. No stated cut-off is given here; in the data, active = GI50 up to about 1.1 µM and inactive = higher.
observation type: GI50

// below: answered molecules
molecule | GI50
Cn1c(=S)c2nc(SCCN3C(=O)c4ccccc4C3=O)[nH]c2n(C)c1=O | > 100 µM (inactive)
CC1CCC2C(C)C(=O)OC2C2(C)C(=O)C=CC12 (configuration not stated) | > 10 µM (inactive)
COC(=O)[C@]1(C)CCC[C@]2(C)C3CC4OOC3(C=C4C(C)C)CCC21 (some centres not stated) | 19.9 µM (inactive)
CC(C)Oc1c(O)c2c3c(oc(=O)n3C=CC2c2ccccc2F)c1OC(C)C (configuration not stated) | 46 µM (inactive)
N#CC(Nc1ccccc1)c1ccc(C(C#N)Nc2ccccc2)cc1 (configuration not stated) | > 100 µM (inactive)
CC(O)=NC(Cc1ccc2ccccc2c1)C(O)=NC(Cc1ccc(Cl)cc1)C(O)=NC(Cc1c[nH]c2ccccc12)C(O)=NC(CO)C(O)=NC(Cc1ccc(O)cc1)C(O)=NC(CCCN=C(N)N)C(O)=NC(CC(C)C)C(O)=NC(CCCN=C(N)N)C(=O)N1CCCC1C(O)=NC(C)C(=N)O (configuration not stated) | 74 µM (inactive)
COC(=O)c1ccc(NCc2cc(O)ccc2O)cc1O | 13.2 µM (inactive)
CCCCCCCCCCCC1CC(=O)NCCCN(C)CCCCN(C)CCCN1C (configuration not stated) [BUDMUNCHIAMINE A] | 1.74 µM (inactive)

stdin: Form field: reported GI50 of C/C(=N\OCC(O)CNC(C)C)c1ccc2c(c1)NC(=O)CS2 (configuration not stated)
stdout: > 100 µM (inactive)

stdin: Also, O=C(O)CC(O)(C(=O)O)C(O)C(=O)O (configuration not stated) please.
stdout: > 1000 µM (inactive)

stdin: Also, c1ccc([P+](CCC[P+](c2ccccc2)(c2ccccc2)c2ccccc2)(c2ccccc2)c2ccccc2)cc1 please.
stdout: 57 µM (inactive)

stdin: Also, CC(=O)c1ccc(NC(=O)/C(=N\NC(N)=O)C(C#N)CC(C)(C)C=O)cc1 (configuration not stated) please.
stdout: > 100 µM (inactive)

stdin: Also, COC(=O)c1ccccc1CC1Cc2cccc(C)c2C1=O (configuration not stated) please.
stdout: 27.7 µM (inactive)

stdin: Also, CC(CC(C)[C@H]1CCC2[C@H]3C(CC[C@@]21C)[C@@]1(C)CCC(O)C[C@H]1C[C@@H]3O)C(=O)O (some centres not stated) please.
stdout: > 100 µM (inactive)

stdin: Also, O=C(/C=C/c1ccccc1Cl)c1ccc(Cl)cc1Cl please.
stdout: 15.6 µM (inactive)

* * *

Tested on: LOX IMVI
Experiment: NCI tumour cell line growth inhibition, 48 h
Activity calls are given as the source filed them. No stated cut-off is given here; in the data, active = GI50 up to about 1.1 µM and inactive = higher.
observation type: GI50

// below: answered molecules
molecule | GI50
Cn1c(NNc2ccccc2)cc(=O)[nH]c1=O | 20 µM (inactive)
NS(=O)(=O)c1ccc(/N=N/c2cc3ccccc3c(C(=O)O)c2O)cc1 | > 54.5 µM (inactive)
O=C(c1ccccc1O)c1cc(-c2ncc3c(=O)c4ccccc4oc3n2)c(-c2ccccc2O)[nH]c1=O | 18.6 µM (inactive)
O=C1/C(=C/c2cccc(Oc3ccccc3)c2)N=C(c2ccccc2)N1c1nc2ccc(Sc3ccccc3)cc2[nH]1 | 30.9 µM (inactive)
O=C(/C=C/c1ccccc1O)/C=C/c1ccccc1O | 0.252 µM (active)
Cc1cn(Cc2ccccc2CCO)c(=S)[nH]c1=O | > 100 µM (inactive)

stdin: Form field: reported GI50 of CCCCCCCCCCCCCCCC(=O)OCC1OC(OC)C(NC(=O)N(CCCl)N=O)C(O)C1O (stereo not drawn)
stdout: 2.36 µM (inactive)

stdin: Also, O=C1C2C3CCC(C2C(=O)N1CO)C1C2C(=O)N(CO)C(=O)C2C31 (stereo not drawn) please.
stdout: 37.5 µM (inactive)
